Where these numbers come from: PubChem BioAssay

Entries and their measured z-score follow.
experiment: modulators of HCV replicon luciferase signal, primary screen, HCV replication inhibitor project, Huh7 cells, luciferase reporter (AID 1109); settings: 48 h, higher = more signal;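 further: huh7 hepatoma cells harbouring a luciferase neomycin HCV replicon reporter; luciferase luminescence as measure of HCV replicon replication; test concentration not given here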

structure: C=CCOC(=O)[C@H]1[C@@H]2C(=O)O[C@@H](c3ccccc3)[C@@H](c3ccccc3)N2[C@@H](c2ccc(OCCOC(=O)[C@H]3C[C@H]4C(=O)N[C@@H](CC(C)C)C(=O)N4[C@H]3c3cccc(OCCO)c3)cc2)[C@]12C(=O)Nc1ccc(I)cc12
z-score: -1.51
//
structure: CCCC[C@@H](O)C1=C(COc2ccccc2)C[C@H]2C(=O)N(C)C(=O)[C@H]2[C@H]1CO
z-score: -0.408
//
structure: CC(C)[Si](C#CCCCC#N)(O[C@H](c1ccccc1)c1cn([C@H](CO)Cc2ccccc2)nn1)C(C)C
z-score: -1.33
